- Test system: SKMEL-5 melanoma
- Test method notes: MTT cytotoxicity assay, SKMEL-5
- Stated conditions: Homo sapiens, SK-MEL-5, […], read-out: Cytotoxicity ED50, SKMEL-5
Reported property: IC50 (µM)
Give bare numbers, in µM.

# Compound, System under test, Reported property, Observed
records = [
    ("CCN(CC)CCOc1ccc(CCc2cc(OC)c(OC)c(OC)c2)cc1 [17g]", "SKMEL-5 melanoma", "IC50", 8.5),
    ("COc1cc(/C=C/c2ccc(OC)c(OC)c2OC)cc(OC)c1OC", "SKMEL-5 melanoma", "IC50", 10.6),
    ("CCc1ccc(/C=C/c2cc(OC)c(OC)c(OC)c2)cc1 [16e]", "SKMEL-5 melanoma", "IC50", 0.17),
    ("COc1cc(/C=C/c2ccc(O)cc2)cc(OC)c1OC", "SKMEL-5 melanoma", "IC50", 11.6),
    ("CCOc1ccc(/C=C\\c2cc(OC)c(OC)c(OC)c2)cc1 [compound 15a]", "SKMEL-5 melanoma", "IC50", 0.0025),
    ("COc1ccc(C(Cc2cc(OC)c(OC)c(OC)c2)C(=O)O)cc1 (stereo not drawn)", "SKMEL-5 melanoma", "IC50", 7.4),
    ("CCOc1ccc(/C=C/c2cc(OC)c(OC)c(OC)c2)cc1 [16a]", "SKMEL-5 melanoma", "IC50", 1.17),
    ("COc1cc(/C=C/c2ccc(Br)cc2)cc(OC)c1OC", "SKMEL-5 melanoma", "IC50", 6.53),
    ("COc1cccc(CCc2cc(OC)c(OC)c(OC)c2)c1", "SKMEL-5 melanoma", "IC50", 9.2),
    ("COc1cc(/C=C\\c2ccc(O[Si](C)(C)C(C)(C)C)cc2)cc(OC)c1OC", "SKMEL-5 melanoma", "IC50", 7.59),
]

Please state, for each entry, its recorded IC50.
1. COc1cc(/C=C\c2ccc(N(C)C)cc2)cc(OC)c1OC
2. CCc1ccc(/C=C\c2cc(OC)c(OC)c(OC)c2)cc1 [15e]
3. COc1ccc(C2Cc3cc(OC)c(OC)c(OC)c3C2)cc1 (stereo not drawn)
4. COc1ccc(/C=C/c2cc(OC)c(OC(C)=O)c(OC)c2)cc1 [16l]
5. COc1ccc(CCc2cc(OC)c(OC)c(OC)c2)cc1

1. 0.00015
2. 0.00086
3. 19.5
4. 10.2
5. 0.00014

----------
- System: tubulin
- Test method notes: Inhibition of tubulin polymerization (turbidimetry)
- Assay type: biochemical, bovine
- Stated conditions: second series (Tables V-VII, IX); read-out: Inhibition of Tubulin Polymerization IC50 (±S.D.)
Give IC50 for every item shown.

Dear colleague, could you send me IC50 for each of the items below? Thanks.
1. COc1ccc(CC2NCCc3c2cc(OC)c(OC)c3OC)cc1 (centres unmarked)
2. COc1ccc(C2Cc3cc(OC)c(OC)c(OC)c3C2)cc1 (centres unmarked)
3. CNC(=O)/C(=C/c1ccc(OC)cc1)c1cc(OC)c(OC)c(OC)c1 [compound 24c]
4. COc1ccc(Cc2cc(OC)c(OC)c(OC)c2)cc1
5. COc1ccc(C(=O)c2c3cc(OC)c(OC)c(OC)c3cc[n+]2C)cc1

["> 40 µM", "> 40 µM", "35 µM", "15 µM", "> 40 µM"]

----------
- System: MCF-7 breast carcinoma
- Test method notes: MTT cytotoxicity assay, MCF-7
- Stated conditions: Homo sapiens, MCF7, […], read-out: Cytotoxicity ED50, MCF-7
Give pIC50 for every item shown.
Numbers only, as −log10 of the molar value.

# Smiles repr, Reported property, Observed
data = [
    ("COc1cc(CCc2ccc(N(C)C)cc2)cc(OC)c1OC", "pIC50", 7.19),
]

Now look at this one.
Lab note: COc1cc(/C=C/c2ccc(N(C)C)cc2)cc(OC)c1OC gave pIC50 of 7.09

----------
- System: SKMEL-5 melanoma
- Test method notes: MTT cytotoxicity assay, SKMEL-5
- Stated conditions: Homo sapiens, SK-MEL-5, […], read-out: Cytotoxicity ED50, SKMEL-5
pIC50: −log10 of the molar value.
# label = yes if pIC50 >= 6 else no

Study these solved cases before continuing.
# Compound, System under test, Assigned label
records = [
    ("COc1cc(/C=C\\c2ccc(Cl)cc2)cc(OC)c1OC", "SKMEL-5 melanoma", "yes"),
    ("COc1ccc(/C=C\\c2cc(OC)c(O[Si](C)(C)C(C)(C)C)c(OC)c2)cc1 [15k]", "SKMEL-5 melanoma", "no"),
    ("COc1cc(/C=C/c2ccc(O[Si](C)(C)C(C)(C)C)cc2)cc(OC)c1OC", "SKMEL-5 melanoma", "no"),
    ("COc1cc(/C=C\\c2ccc(C(C)C)cc2)cc(OC)c1OC [compound 15f]", "SKMEL-5 melanoma", "yes"),
    ("COc1cc(CCc2cc(OC)c(OC)c(OC)c2)cc(OC)c1", "SKMEL-5 melanoma", "no"),
]

pIC50 >= 6 for COc1ccc(/C=C\c2cc(OC)cc(OC)c2)cc1 [15i] ?
yes

Form field: pIC50 at least 6? Entry: CCCOc1ccc(CCc2cc(OC)c(OC)c(OC)c2)cc1 [17b]
no

Given COc1ccc(/C=C/c2ccccc2)c(OC)c1OC , state whether its pIC50 is at least 6.
no

State whether the measured pIC50 reaches 6, counting equality as reaching it, for COc1ccc2c(c1)CN1CCc3c(cc(OC)c(OC)c3OC)C1C2 (stereo not drawn)
no

State whether the measured pIC50 reaches 6, counting equality as reaching it, for COc1ccc(/C=C/c2ccc(OC)c(OC)c2)cc1 [16h]
no

Reported pIC50 at or above 6? COc1ccc(/C=C/c2cc(OC)c(O[Si](C)(C)C(C)(C)C)c(OC)c2)cc1 [16k]
no

Confirm if pIC50 reported for the compound COc1ccc(/C=C/c2cc(OC)c(OC)c(OC)c2)c(Cl)c1 is 6 or above.
no

----------
- Test system: MCF-7 breast carcinoma
- Test method notes: MTT cytotoxicity assay, MCF-7
- Stated conditions: Homo sapiens, MCF7, […], read-out: Cytotoxicity ED50, MCF-7
Field 'label' (enum: Satisfied / Not satisfied). Set to Satisfied when IC50 is strictly under 2 µM; else Not satisfied.

Some entries whose results are on file:
# Compound, Assigned label
rows = [
    ("COc1ccc(C2Cc3cc(OC)c(OC)c(OC)c3C2=O)cc1 (centres unmarked)", "Not satisfied"),
    ("CCc1ccc(/C=C\\c2cc(OC)c(OC)c(OC)c2)cc1 [15e]", "Satisfied"),
    ("COc1ccc(C(=O)Nc2cc(OC)c(OC)c(OC)c2)cc1OC [11b]", "Not satisfied"),
    ("COc1cc(/C=C/c2ccc(SC)cc2)cc(OC)c1OC [16c]", "Satisfied"),
    ("COc1cc(/C=C\\c2ccc(C)cc2)cc(OC)c1OC [15d]", "Satisfied"),
]

Please state whether IC50 is below 2 µM for COc1ccc(/C=C/c2cc(OC)c(OC(C)=O)c(OC)c2)cc1 [16l]
Not satisfied

Strictly below 2 µM in IC50? COc1cc(/C=C/c2ccccc2)cc(OC)c1OC
Not satisfied

----------
- Tested on: SKMEL-5 melanoma
- Test method notes: MTT cytotoxicity assay, SKMEL-5
- Stated conditions: Homo sapiens, SK-MEL-5, […], read-out: Cytotoxicity ED50, SKMEL-5
What pIC50 was measured for each of the following?
One number for each entry, as −log10 of the molar value.

For each listed entry, give its pIC50.
1. COc1cc(/C=C\c2ccc(OC(C)=O)cc2)cc(OC)c1OC [compound 5p]
2. COc1ccc(Cc2c3cc(OC)c(OC)c(OC)c3cc[n+]2C)cc1 [compound 37]
3. COc1cc(CCc2ccc(C)cc2)cc(OC)c1OC [17d]
4. CCOc1ccc(CCc2cc(OC)c(OC)c(OC)c2)cc1 [17a]

[6.22, 5.68, 6.57, 6.77]

----------
For each of the compounds below, state its GI50.
- Tested on: CAKI-1 renal cancer
- Test method notes: Cytotoxicity, CAKI-1
- Stated conditions: read-out: cytotoxicity GI50, CAKI-1, 50% growth inhibition, average of two determinations, 8640 min, Hydrochloride
Structures can show the parent of a compound that is named as a salt.
Answers are plain numbers, in nM.

# Compound, Readout unit, GI50
data = [
    ("COc1cc(CNc2ccc(SC)cc2)cc(OC)c1OC [110e, Hydrochloride]", "nM", 16300),
    ("CCOc1ccc(NCc2cc(OC)c(OC)c(OC)c2)cc1 [110d, Hydrochloride]", "nM", 1050),
    ("COc1cc(CNc2ccc(C)cc2)cc(OC)c1OC.Cl [110a, Hydrochloride]", "nM", 162),
]

Reported GI50 (CAKI-1 renal cancer) for entry COc1ccc(NCc2cc(OC)c(OC)c(OC)c2)cc1 [110c, Hydrochloride] is 2500
